System: Mycosphaerella graminicola; Anamorph: Septoria tritici; Bayer Code SEPTTR
assay.procedure: Leaf blotch of wheat, foliar fungicide treatment, one day protectant (1DP) or three day curative (3DC)
Format: in vivo, Septoria tritici on wheat plants (variety Yuma)
assay.setup: Zymoseptoria tritici, 72 h, three day curative, 25 ppm, rating of percent disease control, read-out: SEPTTR 3DC 25 ppm
The reader will find reported pest or weed control at 25 ppm values listed item by item below.

{"smiles.structure": "CC#CCOc1ncc(F)c(NC(=O)Nc2ccsc2)n1", "pest or weed control at 25 ppm": "51 to 75%"}
{"smiles.structure": "CCCCOc1cccc(COc2ncc(F)c(N)n2)c1", "pest or weed control at 25 ppm": "76 to 100%"}
{"smiles.structure": "Cc1ccc(COc2ncc(F)c(NC(=O)OCc3ccccc3)n2)cc1", "pest or weed control at 25 ppm": "76 to 100%"}
{"smiles.structure": "COc1ccc(S(=O)(=O)Oc2ncc(F)c(N)n2)cc1", "pest or weed control at 25 ppm": "26 to 50%"}
{"smiles.structure": "CC(C)(c1ccccc1)c1cccc(COc2ncc(F)c(N)n2)c1", "pest or weed control at 25 ppm": "0 to 25%"}
{"smiles.structure": "Cc1ccc(OC(=O)Oc2ncc(F)c(/N=C/N(C)C)n2)cc1", "pest or weed control at 25 ppm": "26 to 50%"}
{"smiles.structure": "CN(C)/C=N/c1nc(OCc2ccn(C)n2)ncc1F", "pest or weed control at 25 ppm": "76 to 100%"}
{"smiles.structure": "CCOC(=O)Nc1nc(OCc2cccc(F)c2)ncc1F", "pest or weed control at 25 ppm": "76 to 100%"}
{"smiles.structure": "COc1ccc(OC)c(COc2ncc(F)c(NSc3ccccc3[N+](=O)[O-])n2)c1", "pest or weed control at 25 ppm": "26 to 50%"}
{"smiles.structure": "COc1ccc(COc2ncc(F)c(/N=C/N(C)C)n2)cc1F", "pest or weed control at 25 ppm": "76 to 100%"}
{"smiles.structure": "N#C/C(=N\\Oc1ncc(F)c(N)n1)c1ccccc1", "pest or weed control at 25 ppm": "76 to 100%"}
{"smiles.structure": "CN(C)/C=N/c1nc(OCc2cccs2)ncc1F", "pest or weed control at 25 ppm": "76 to 100%"}

----------
Test system: Mycosphaerella graminicola; Anamorph: Septoria tritici; Bayer Code SEPTTR
assay.procedure: Leaf blotch of wheat, foliar fungicide treatment, one day protectant (1DP) or three day curative (3DC)
Type: in vivo, Septoria tritici on wheat plants (variety Yuma)
assay.setup: Zymoseptoria tritici, 24 h, one day protectant (1DP), 100 ppm, rating of percent disease control, read-out: SEPTTR 1DP 100 ppm
The reader will find reported pest or weed control at 100 ppm values listed item by item below.

{"molecule": "CC(C)Oc1cccc(COc2ncc(F)c(N)n2)c1 [Compound 441]", "pest or weed control at 100 ppm": "76 to 100%"}
{"molecule": "Nc1nc(OCc2ccnc3ccccc23)ncc1F [Compound 401]", "pest or weed control at 100 ppm": "76 to 100%"}
{"molecule": "Fc1ccc(COc2ncc(F)c(NNC3CCCCC3)n2)cc1 [Compound 492]", "pest or weed control at 100 ppm": "26 to 50%"}
{"molecule": "COc1c(C)cnc(COc2ncc(F)c(N)n2)c1C [Compound 189]", "pest or weed control at 100 ppm": "76 to 100%"}
{"molecule": "Cn1nc(COc2ncc(F)c(N)n2)c2ccccc21 [Compound 396]", "pest or weed control at 100 ppm": "76 to 100%"}
{"molecule": "Fc1ccc(COc2ncc(F)c(NC3CCCCC3)n2)cc1 [Compound 205]", "pest or weed control at 100 ppm": "0 to 25%"}
{"molecule": "Nc1nc(OCc2ccsc2)ncc1F [Compound 508]", "pest or weed control at 100 ppm": "76 to 100%"}
{"molecule": "O=C(Nc1nc(OCc2ccc(F)cc2)ncc1F)C(F)F [Compound 501]", "pest or weed control at 100 ppm": "76 to 100%"}
{"molecule": "Cc1noc(-c2ccccc2COc2ncc(F)c(N)n2)n1 [Compound 486]", "pest or weed control at 100 ppm": "0 to 25%"}
{"molecule": "Nc1nc(OCc2cccs2)ncc1F [Compound 213]", "pest or weed control at 100 ppm": "76 to 100%"}

Recorded values, source patent US9204653B2.
